Hello, the source for this data is paper PMC4360782, in case you need it.

Kd by entry:
Target: T1, TerR35-138 (Aspergillus terreus SBUG844, UniProt Q0D1P5 35-138)
T1 sequence: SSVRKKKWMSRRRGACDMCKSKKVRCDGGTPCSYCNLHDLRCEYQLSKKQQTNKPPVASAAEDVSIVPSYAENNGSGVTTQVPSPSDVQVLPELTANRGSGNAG
Test: SPR; molar ratio 1.62; SPR (Biacore 2000, SA-coated CM3 chip): 10 mM HEPES pH 7.4, 150 mM NaCl, 0.005% P20, 5 mM beta-mercaptoethanol, 1 uM ZnCl2, 25 C; protein 12.5-6400 nM; 1:1 model with mass transport
Conditions: protein: recombinant; (pET-29a; theoretical mass 11.35 kDa); label: biotin on one strand; 18 bp duplex
Please don't drop the unit; write it after the number.

BS6 (dsDNA) DNA 1: CTCTCGGAAACTCGGAAA DNA 2: TTTCCGAGTTTCCGAGAG ... 150 nM

--- query ---
Reported Kd ( BS2 (dsDNA) DNA 1: TTATCGGACTTTCGGATT DNA 2: AATCCGAAAGTCCGATAA ) = 536 nM
